// residual activity lookup, one value per entry
# assay_system: Tyrosine-protein kinase HCK (Homo sapiens) (UniProt P08631)
# Sequence (P08631 2-526 limits assumed): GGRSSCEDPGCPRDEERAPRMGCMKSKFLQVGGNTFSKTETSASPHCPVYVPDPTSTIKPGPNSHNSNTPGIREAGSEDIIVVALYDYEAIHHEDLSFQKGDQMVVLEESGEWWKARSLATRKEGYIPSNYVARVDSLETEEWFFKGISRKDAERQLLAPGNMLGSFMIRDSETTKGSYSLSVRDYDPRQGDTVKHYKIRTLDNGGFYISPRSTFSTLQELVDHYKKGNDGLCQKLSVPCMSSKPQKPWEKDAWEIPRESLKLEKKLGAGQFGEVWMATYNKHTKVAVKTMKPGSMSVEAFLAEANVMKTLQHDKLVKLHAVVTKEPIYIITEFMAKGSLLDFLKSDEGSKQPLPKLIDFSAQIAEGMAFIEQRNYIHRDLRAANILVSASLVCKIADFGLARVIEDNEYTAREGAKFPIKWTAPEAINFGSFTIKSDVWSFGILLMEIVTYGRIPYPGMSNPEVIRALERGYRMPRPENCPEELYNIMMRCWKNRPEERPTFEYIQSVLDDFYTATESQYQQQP
# reported_conditions: at 1 µM
Your answer should be a plain number; it is taken to be in %.

Reference set (10 entries):
Cc1nc2cc3nc(-c4cccs4)cnc3cc2n1C; 90
Nc1ccc2ncnc(NCCc3ccc(Oc4ccccc4)cc3)c2c1; 97
Cc1ccc(S(=O)(=O)/C=C/C#N)cc1; 98
CCOc1cc2ncnc(Nc3cccc(Br)c3)c2cc1OCC; 17
O=C1NC(=O)c2cc(Nc3ccc(F)cc3)c(Nc3ccc(F)cc3)cc21; 87
O=C1Nc2cc(Br)ccc2/C1=C1/Nc2ccccc2/C1=N\O; 1
O=C1c2ccccc2-[n+]2ccc3c([nH]c4ccccc43)c21; 89
c1ccc2c(-c3ccncc3)c[nH]c2c1; 104
Nc1cccc(-c2cc3c(Oc4cccc(O)c4)ncnc3[nH]2)c1; -3
Oc1ccc(Nc2nc(-c3ccc(Cl)cc3)cs2)cc1; 97

Challenge: Fill in: residual activity of "CO[C@H]1C[C@@H]2CC[C@@H](C)[C@@](O)(O2)C(=O)C(=O)N2CCCC[C@H]2C(=O)O[C@H]([C@H](C)C[C@@H]2CC[C@@H](O)[C@H](OC)C2)CC(=O)[C@H](C)/C=C(\C)[C@@H](O)[C@@H](OC)C(=O)[C@H](C)C[C@H](C)/C=C/C=C/C=C/1C" is ___
Response given: 99

Challenge: Fill in: residual activity of "O=Nc1c(-c2c(O)[nH]c3ccccc23)[nH]c2ccccc12" is ___
Response given: 8

Challenge: Fill in: residual activity of "O=C(Nc1cccc(Nc2nccc(Nc3cccc(C(F)(F)F)c3)n2)c1)C1CC1" is ___
Response given: 78

Challenge: Fill in: residual activity of "N#C/C(=C(\N)Sc1ccc(N)cc1)c1ccccc1C(F)(F)F" is ___
Response given: 99

Challenge: Fill in: residual activity of "Cn1cc(/C=C2\C(=O)Nc3ccc(S(N)(=O)=O)cc32)c2ccccc21" is ___
Response given: 56

Challenge: Fill in: residual activity of "CN(C)c1ccc(/C=C2\C(=O)Nc3ccccc32)cc1" is ___
Response given: 102

Challenge: Fill in: residual activity of "Nc1n[nH]c2nnc(-c3c(-c4ccccc4)nn4ccccc34)cc12" is ___
Response given: 87

Challenge: Fill in: residual activity of "c1ccc(-c2n[nH]cc2-c2ccnc3ccccc23)nc1" is ___
Response given: 100

---

# assay_system: Serine/threonine-protein kinase mTOR (Homo sapiens) (UniProt P42345)
# reported_conditions: at 1 µM
// residual activity lookup, one value per entry
Your answer should be a plain number; it is taken to be in %.

Reference set (10 entries):
Nc1n[nH]c2nnc(-c3c(-c4ccccc4)nn4ccccc34)cc12; 113
COc1cccc(-c2cc(=O)c3ccccc3o2)c1N; 92
O=C(O)c1ccc2c3c1cccc3c(=O)n1c3ccccc3nc21; 105
Cn1cnc2cc3c(Nc4cccc(Br)c4)ncnc3cc21; 102
COc1cc2ncnc(Nc3ccc(O)c(Br)c3)c2cc1OC; 106
NC(=O)c1ccc2[nH]c(-c3ccc(Oc4ccc(Cl)cc4)cc3)nc2c1; 123
COc1cc2ncnc(Nc3ccc(Oc4ccccc4)cc3)c2cc1OC; 90
COc1cc2ncnc(Nc3ccc(NC(=O)c4ccccc4)cc3)c2cc1OC; 88
O=C1c2ccccc2-[n+]2ccc3c([nH]c4ccccc43)c21; 103
Cc1ccc(NC2=CC(=O)c3sc(C)nc3C2=O)cc1; 96

Challenge: Fill in: residual activity of "Nc1nc(Nc2ccc(S(N)(=O)=O)cc2)nn1C(=S)Nc1c(F)cccc1F" is ___
Response given: 108

Challenge: Fill in: residual activity of "c1ccc(-c2n[nH]c3c2oc2ccccc23)cc1" is ___
Response given: 88

---

# assay_system: Serine/threonine-protein kinase VRK2 (Homo sapiens)
# reported_conditions: at 10 µM
# Description: Millipore: Percentage of residual kinase activity of VRK2 at 10uM relative to control. Control inhibitor: Phosphoric acid* at 0.3uM. Buffer: 8 mM MOPS pH 7.0, 0.2 mM EDTA
endpoint_label: residual activity

Reference set (3 entries):
O=C1NC(=O)c2c1c1c3ccccc3[nH]c1c1[nH]c3cc(Br)ccc3c21; 90%
COc1cc2ncnc(Nc3ccc(O)c(Br)c3)c2cc1OC; 56%
CC(C)n1cnc2c(NCc3ccccc3)nc(NCCCO)nc21; 69%

Challenge: Fill in: residual activity of "CN(C)CCCn1cc(C2=C(c3c[nH]c4ccccc34)C(=O)NC2=O)c2ccccc21" is ___
Response given: 76%

Challenge: Fill in: residual activity of "O=C(Nc1cccc(Nc2cc(Nc3cccc(C(F)(F)F)c3)ncn2)c1)C1CC1" is ___
Response given: 77%

Challenge: Fill in: residual activity of "Cc1cncc2cccc(S(=O)(=O)N3CCCN(C(=O)CN)C[C@H]3C)c12" is ___
Response given: 66%

Challenge: Fill in: residual activity of "O=C(Nc1cccc(Nc2nccc(Nc3cccc(C(F)(F)F)c3)n2)c1)C1CC1" is ___
Response given: 85%

---

# assay_system: Rho-associated protein kinase 1 (Homo sapiens) (UniProt Q13464)
# Sequence (Q13464 2-1354 limits assumed): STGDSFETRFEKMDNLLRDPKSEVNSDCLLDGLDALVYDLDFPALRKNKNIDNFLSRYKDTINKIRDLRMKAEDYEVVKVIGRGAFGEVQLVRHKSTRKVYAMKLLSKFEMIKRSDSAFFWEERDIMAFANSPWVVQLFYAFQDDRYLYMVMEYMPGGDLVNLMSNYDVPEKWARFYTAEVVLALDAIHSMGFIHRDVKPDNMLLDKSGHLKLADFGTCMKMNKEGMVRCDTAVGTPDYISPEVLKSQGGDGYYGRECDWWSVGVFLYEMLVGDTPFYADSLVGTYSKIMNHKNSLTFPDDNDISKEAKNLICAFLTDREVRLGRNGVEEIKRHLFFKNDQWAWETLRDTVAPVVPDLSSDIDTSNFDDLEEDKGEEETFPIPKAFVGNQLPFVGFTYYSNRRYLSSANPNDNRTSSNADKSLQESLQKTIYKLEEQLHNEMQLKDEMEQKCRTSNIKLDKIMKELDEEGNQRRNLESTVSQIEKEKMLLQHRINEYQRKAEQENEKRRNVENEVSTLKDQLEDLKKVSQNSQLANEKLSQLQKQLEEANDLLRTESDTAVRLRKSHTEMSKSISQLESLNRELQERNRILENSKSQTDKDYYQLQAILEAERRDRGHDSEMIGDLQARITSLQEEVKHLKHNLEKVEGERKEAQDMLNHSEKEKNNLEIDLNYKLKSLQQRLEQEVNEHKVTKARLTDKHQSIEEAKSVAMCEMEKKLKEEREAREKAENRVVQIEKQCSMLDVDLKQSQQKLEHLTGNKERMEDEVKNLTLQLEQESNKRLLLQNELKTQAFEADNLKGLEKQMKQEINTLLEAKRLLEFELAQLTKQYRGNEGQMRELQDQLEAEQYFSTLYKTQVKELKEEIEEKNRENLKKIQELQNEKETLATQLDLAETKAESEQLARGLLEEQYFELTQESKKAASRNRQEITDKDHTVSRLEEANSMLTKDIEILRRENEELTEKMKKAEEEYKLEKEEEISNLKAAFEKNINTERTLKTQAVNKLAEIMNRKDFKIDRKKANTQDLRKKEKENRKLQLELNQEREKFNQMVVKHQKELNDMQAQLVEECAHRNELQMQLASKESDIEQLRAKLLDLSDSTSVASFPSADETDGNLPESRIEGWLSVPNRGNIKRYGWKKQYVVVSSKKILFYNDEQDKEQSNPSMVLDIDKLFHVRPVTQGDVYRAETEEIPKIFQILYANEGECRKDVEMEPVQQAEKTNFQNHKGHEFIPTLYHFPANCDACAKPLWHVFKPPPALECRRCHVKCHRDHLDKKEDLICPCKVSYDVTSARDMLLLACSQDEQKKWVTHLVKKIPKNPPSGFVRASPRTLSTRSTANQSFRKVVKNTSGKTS
# reported_conditions: at 1 µM
endpoint_label: residual activity (%)
Your answer should be a plain number; it is taken to be in %.

Reference set (3 entries):
Oc1n[nH]c2nnc(-c3c(-c4ccccc4)nn4ccccc34)cc12; 121
CN(C)c1ccc(/C=C2\C(=O)Nc3ccccc32)cc1; 132
Cn1cc(/C=C2\C(=O)Nc3ccc(S(N)(=O)=O)cc32)c2ccccc21; 92

Challenge: Fill in: residual activity of "COc1ccc(OC)c2c(=S)c3ccccc3[nH]c12" is ___
Response given: 122

Challenge: Fill in: residual activity of "COc1cc2ncnc(N3CCN(C(=O)Nc4ccc(Oc5ccccc5)cc4)CC3)c2cc1OC" is ___
Response given: 124

Challenge: Fill in: residual activity of "COc1cc2ncnc(Nc3ccc(Oc4ccccc4)cc3)c2cc1OC" is ___
Response given: 115

Challenge: Fill in: residual activity of O=C1Nc2ccccc2/C1=C1/Nc2ccccc2/C1=N\OCCC(O)CO (stereo not given) is ___
Response given: 114

Challenge: Fill in: residual activity of "Cn1cnc2cc3c(Nc4cccc(Br)c4)ncnc3cc21" is ___
Response given: 104

Challenge: Fill in: residual activity of "c1ccc(-c2n[nH]c3c2oc2ccccc23)cc1" is ___
Response given: 114

---

# assay_system: Tyrosine-protein kinase CSK (Homo sapiens) (UniProt P41240)
# Sequence (P41240 2-450 limits assumed): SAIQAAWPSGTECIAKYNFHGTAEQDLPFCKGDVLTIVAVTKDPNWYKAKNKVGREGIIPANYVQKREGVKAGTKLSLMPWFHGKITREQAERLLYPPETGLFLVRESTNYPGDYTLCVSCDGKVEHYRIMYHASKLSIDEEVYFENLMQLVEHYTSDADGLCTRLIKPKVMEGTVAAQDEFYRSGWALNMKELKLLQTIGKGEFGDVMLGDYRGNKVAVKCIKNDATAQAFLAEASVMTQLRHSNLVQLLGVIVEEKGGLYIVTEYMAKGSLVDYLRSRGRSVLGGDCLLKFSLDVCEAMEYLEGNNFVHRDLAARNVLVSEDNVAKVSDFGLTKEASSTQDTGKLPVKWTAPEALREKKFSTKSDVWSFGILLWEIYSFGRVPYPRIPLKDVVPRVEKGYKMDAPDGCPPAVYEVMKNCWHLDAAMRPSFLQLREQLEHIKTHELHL
# reported_conditions: at 10 µM
Assign class by residual activity: not lower than 90% means criterion met; lower than 90% means criterion not met.

Challenge: // inclusive: residual activity at least 90%? input: "CCOc1cc2ncnc(Nc3cccc(Br)c3)c2cc1OCC"
Response given: criterion not met

Challenge: // inclusive: residual activity at least 90%? input: "COc1cc2ncc(-c3ccccc3)nc2cc1OC"
Response given: criterion met

Challenge: // inclusive: residual activity at least 90%? input: "NC(=O)c1ccc2[nH]c(-c3ccc(Oc4ccc(Cl)cc4)cc3)nc2c1"
Response given: criterion met

Challenge: // inclusive: residual activity at least 90%? input: "CC#CC(=O)Nc1cc2c(Nc3ccc(F)c(Cl)c3)ncnc2cn1"
Response given: criterion met

Challenge: // inclusive: residual activity at least 90%? input: "O=[N+]([O-])c1ccc(-c2nc(-c3ccc(F)cc3)c(-c3ccncc3)[nH]2)cc1"
Response given: criterion met

Challenge: // inclusive: residual activity at least 90%? input: "CC(=O)O/N=C1\C(=C2\C(=O)Nc3cc(Br)ccc32)Nc2ccccc21"
Response given: criterion not met

Challenge: // inclusive: residual activity at least 90%? input: "COc1ccc(C(=O)Nc2sc3c(c2C(N)=O)CCCC3)cc1OC"
Response given: criterion met

Challenge: // inclusive: residual activity at least 90%? input: "COc1ccc(CNc2nc(N(CCO)CCO)nc3c2ncn3C(C)C)cc1"
Response given: criterion met

Challenge: // inclusive: residual activity at least 90%? input: "O=Nc1c(-c2c(O)[nH]c3ccccc23)[nH]c2ccccc12"
Response given: criterion not met

---

# assay_system: Serine/threonine-protein kinase MRCK alpha (Homo sapiens)
# reported_conditions: at 10 µM
endpoint_label: residual activity (%)
Your answer should be a plain number; it is taken to be in %.

Reference set (5 entries):
Cc1nc(-c2ccccc2)c(-c2ccncc2)o1; 129
c1ccc(-c2n[nH]cc2-c2ccnc3ccccc23)nc1; 100
Oc1ccc(-c2nc(-c3ccc(F)cc3)c(-c3ccncc3)[nH]2)cc1; 103
CO[C@H]1C[C@@H]2CC[C@@H](C)[C@@](O)(O2)C(=O)C(=O)N2CCCC[C@H]2C(=O)O[C@H]([C@H](C)C[C@@H]2CC[C@@H](O)[C@H](OC)C2)CC(=O)[C@H](C)/C=C(\C)[C@@H](O)[C@@H](OC)C(=O)[C@H](C)C[C@H](C)/C=C/C=C/C=C/1C; 146
COc1ccc(OC)c2c(=S)c3ccccc3[nH]c12; 93

Challenge: Fill in: residual activity of "Cc1cc(Nc2nc(-c3ccccc3)nc3ccccc23)n[nH]1" is ___
Response given: 110

Challenge: Fill in: residual activity of "O=C1NC(=O)c2c1c1c3ccccc3[nH]c1c1[nH]c3cc(Br)ccc3c21" is ___
Response given: 88

Challenge: Fill in: residual activity of "Oc1ccc(Nc2nc(-c3ccc(Cl)cc3)cs2)cc1" is ___
Response given: 135

Challenge: Fill in: residual activity of "NC(=O)c1ccc2[nH]c(-c3ccc(Oc4ccc(Cl)cc4)cc3)nc2c1" is ___
Response given: 127

# credit: ChEMBL document CHEMBL2218924
